target: Keap1/Nrf2 (Homo sapiens); experiment: Inhibition of Keap1-Nrf2 (unknown origin) interaction assessed as compound's equilibrium dissociation constant after 60 mins by fluorescence anisotropy assay
Sequence (Q16236 whole entry): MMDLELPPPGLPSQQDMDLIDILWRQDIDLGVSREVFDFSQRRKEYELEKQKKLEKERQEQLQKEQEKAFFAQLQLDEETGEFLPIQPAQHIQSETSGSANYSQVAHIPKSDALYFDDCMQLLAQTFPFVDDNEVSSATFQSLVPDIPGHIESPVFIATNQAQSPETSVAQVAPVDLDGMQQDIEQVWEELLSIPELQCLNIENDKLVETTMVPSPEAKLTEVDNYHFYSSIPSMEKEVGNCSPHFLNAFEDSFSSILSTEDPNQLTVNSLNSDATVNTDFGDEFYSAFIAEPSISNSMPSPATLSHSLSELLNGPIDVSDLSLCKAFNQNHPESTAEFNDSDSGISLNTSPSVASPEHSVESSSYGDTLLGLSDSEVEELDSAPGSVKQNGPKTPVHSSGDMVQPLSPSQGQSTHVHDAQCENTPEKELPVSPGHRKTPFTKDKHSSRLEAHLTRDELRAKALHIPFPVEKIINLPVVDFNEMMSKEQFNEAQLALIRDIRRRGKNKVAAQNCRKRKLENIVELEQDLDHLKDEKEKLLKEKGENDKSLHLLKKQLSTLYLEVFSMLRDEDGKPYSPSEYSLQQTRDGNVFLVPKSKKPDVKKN
Sequence (Q14145 whole entry): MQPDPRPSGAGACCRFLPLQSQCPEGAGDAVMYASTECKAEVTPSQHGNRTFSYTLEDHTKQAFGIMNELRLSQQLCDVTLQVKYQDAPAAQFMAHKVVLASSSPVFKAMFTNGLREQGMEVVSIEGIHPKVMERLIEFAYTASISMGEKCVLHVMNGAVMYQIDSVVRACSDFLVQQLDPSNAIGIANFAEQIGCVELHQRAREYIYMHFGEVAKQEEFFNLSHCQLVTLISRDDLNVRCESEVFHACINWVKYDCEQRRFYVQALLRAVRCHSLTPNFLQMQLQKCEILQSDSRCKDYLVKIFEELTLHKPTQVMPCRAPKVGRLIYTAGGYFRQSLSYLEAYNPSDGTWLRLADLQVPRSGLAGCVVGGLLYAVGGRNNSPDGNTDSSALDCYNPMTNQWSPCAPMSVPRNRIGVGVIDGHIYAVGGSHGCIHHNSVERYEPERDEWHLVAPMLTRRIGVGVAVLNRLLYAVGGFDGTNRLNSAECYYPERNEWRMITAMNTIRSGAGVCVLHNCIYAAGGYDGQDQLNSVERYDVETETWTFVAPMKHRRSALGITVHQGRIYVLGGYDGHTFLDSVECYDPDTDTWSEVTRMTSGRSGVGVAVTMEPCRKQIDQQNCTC
pKd: −log10 of the molar value.
# key: entry, value: pKd

Example results:
# sample_smiles, pKd
records = [
    ("O=C(CN1C(=O)S/C(=C\\c2cccn2-c2cccc(C(=O)O)c2)C1=O)Nc1ccc(F)cc1", "< 4.00"),
    ("Cc1ccc(S(=O)(=O)Nc2cc(SCc3ccccc3)c(O)c3ccccc23)cc1", "< 4.00"),
]

Would you kindly look at the next entry?
Ask | Write down the reported pKd of "Cc1ccc(NC(=O)CN2C(=O)S/C(=C\c3cccn3C)C2=O)c(C)c1" , test system: Keap1/Nrf2 (Homo sapiens).
Reply | < 4.00
